Target: BATF;JUNB (human;human, UniProt Q16520;P17275 1-125;148-347, |)
Sequence 1: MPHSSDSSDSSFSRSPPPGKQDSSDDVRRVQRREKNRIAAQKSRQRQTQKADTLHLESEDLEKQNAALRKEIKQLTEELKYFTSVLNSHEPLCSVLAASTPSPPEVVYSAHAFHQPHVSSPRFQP
Sequence 2: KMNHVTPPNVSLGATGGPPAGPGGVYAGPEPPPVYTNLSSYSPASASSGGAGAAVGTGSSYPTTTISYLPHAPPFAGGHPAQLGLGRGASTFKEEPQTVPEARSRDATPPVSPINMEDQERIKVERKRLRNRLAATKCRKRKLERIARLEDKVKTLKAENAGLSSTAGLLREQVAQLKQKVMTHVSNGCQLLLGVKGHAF
Assay: Spec-seq (EMSA and sequencing of bound and unbound bands); 100 nM BATFx-JUNB, 1 uM dsDNA library, 50 mM K acetate, 20 mM Tris-acetate, 10 mM Mg acetate, 100 ug/ml BSA, pH 7.9, 10% glycerol, 30 min on ice; native 9% PAGE at 4 C; low values mean tight binding
Details: protein: recombinant;recombinant; tags: N-terminal mCherry-TEV, cleaved off;C-terminal 6His; copies: 1;1; dsDNA, one strand shown
// reported binding signal per item
measuredParameter: binding signal (kT)

[[record]]
residuestring = "GATAGTCTCATTTTCACCCCGTGAAATGACTTACTTGTTCCATTACAGTATCTGT"
measuredparameter = "binding signal"
val = 0.0298

[[record]]
residuestring = "GATAGTCTCATTTTCACCCCGTGAAATGAGTAATTTGTTCCATTACAGTATCTGT"
measuredparameter = "binding signal"
val = -0.4

[[record]]
residuestring = "GATAGTCTCATTTTCACCCCGTGAAAGTCAGTCATTGTTCCATTACAGTATCTGT"
measuredparameter = "binding signal"
val = -0.0489

[[record]]
residuestring = "GATAGTCTCATTTTCACCCCGTGAAATGACTGAATTGTTCCATTACAGTATCTGT"
measuredparameter = "binding signal"
val = -0.087

[[record]]
residuestring = "GATAGTCTCATTTTCACCCCGTGAAATGACCCAATTGTTCCATTACAGTATCTGT"
measuredparameter = "binding signal"
val = 0.427

[[record]]
residuestring = "GATAGTCTCATTTTCACCCCGTGAAATGACACAGTTGTTCCATTACAGTATCTGT"
measuredparameter = "binding signal"
val = 0.189

[[record]]
residuestring = "GATAGTCTCATTTTCACCCCGTGAAATGACTTATTTGTTCCATTACAGTATCTGT"
measuredparameter = "binding signal"
val = -0.08


----------
Target: BATF2 (bZIP);JUNB (human;human, UniProt Q8N1L9;P17275 1-142;148-347, |)
Sequence 1: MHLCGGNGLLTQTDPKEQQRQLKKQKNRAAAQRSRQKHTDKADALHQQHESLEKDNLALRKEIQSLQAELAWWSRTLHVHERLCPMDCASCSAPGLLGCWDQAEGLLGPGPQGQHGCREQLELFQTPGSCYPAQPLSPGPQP
Sequence 2: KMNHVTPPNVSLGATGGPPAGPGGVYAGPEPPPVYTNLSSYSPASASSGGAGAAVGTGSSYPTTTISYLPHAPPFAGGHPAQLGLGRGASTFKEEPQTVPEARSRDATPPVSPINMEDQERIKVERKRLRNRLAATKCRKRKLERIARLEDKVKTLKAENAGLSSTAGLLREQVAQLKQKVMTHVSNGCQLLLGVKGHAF
Test: Spec-seq (EMSA and sequencing of bound and unbound bands); 100 nM BATFx-JUNB, 1 uM dsDNA library, 50 mM K acetate, 20 mM Tris-acetate, 10 mM Mg acetate, 100 ug/ml BSA, pH 7.9, 10% glycerol, 30 min on ice; native 9% PAGE at 4 C; low values mean tight binding
Conditions: protein: recombinant;recombinant; tags: N-terminal mCherry-TEV, cleaved off;C-terminal 6His; copies: 1;1; dsDNA, one strand shown
// reported log10 of binding signal per item
measuredParameter: log10 of binding signal (log10 of the value in kT)

[[record]]
residuestring = "GATAGTCTCATTTTCACCCCGTGAAATGACTGAATTGTTCCATTACAGTATCTGT"
experimentalsystem = "BATF2 (bZIP);JUNB (human;human, UniProt Q8N1L9;P17275 1-142;148-347, |)"
val = -0.42

[[record]]
residuestring = "GATAGTCTCATTTTCACCCCGTGAAATGAGTCGGTTGTTCCATTACAGTATCTGT"
experimentalsystem = "BATF2 (bZIP);JUNB (human;human, UniProt Q8N1L9;P17275 1-142;148-347, |)"
val = 0.03

[[record]]
residuestring = "GATAGTCTCATTTTCACCCCGTGAAATGACTTAATTGTTCCATTACAGTATCTGT"
experimentalsystem = "BATF2 (bZIP);JUNB (human;human, UniProt Q8N1L9;P17275 1-142;148-347, |)"
val = -0.67

[[record]]
residuestring = "GATAGTCTCATTTTCACCCCGTGAAATGACTGATTTGTTCCATTACAGTATCTGT"
experimentalsystem = "BATF2 (bZIP);JUNB (human;human, UniProt Q8N1L9;P17275 1-142;148-347, |)"
val = -0.49

[[record]]
residuestring = "GATAGTCTCATTTTCACCCCGTGAAATGACGTTATTGTTCCATTACAGTATCTGT"
experimentalsystem = "BATF2 (bZIP);JUNB (human;human, UniProt Q8N1L9;P17275 1-142;148-347, |)"
val = -1.16

[[record]]
residuestring = "GATAGTCTCATTTTCACCCCGTGAAATGACACATTTGTTCCATTACAGTATCTGT"
experimentalsystem = "BATF2 (bZIP);JUNB (human;human, UniProt Q8N1L9;P17275 1-142;148-347, |)"
val = -0.37

[[record]]
residuestring = "GATAGTCTCATTTTCACCCCGTGAAATGAGTAATTTGTTCCATTACAGTATCTGT"
experimentalsystem = "BATF2 (bZIP);JUNB (human;human, UniProt Q8N1L9;P17275 1-142;148-347, |)"
val = -0.83

[[record]]
residuestring = "GATAGTCTCATTTTCACCCCGTGAAATGACTGAGTTGTTCCATTACAGTATCTGT"
experimentalsystem = "BATF2 (bZIP);JUNB (human;human, UniProt Q8N1L9;P17275 1-142;148-347, |)"
val = -0.41

